- TEST_TARGET: T1, GST-PDZ fusion protein, PDZ domain of SHANK2 (GID 6049185), Q9UPX8
- T1 chain: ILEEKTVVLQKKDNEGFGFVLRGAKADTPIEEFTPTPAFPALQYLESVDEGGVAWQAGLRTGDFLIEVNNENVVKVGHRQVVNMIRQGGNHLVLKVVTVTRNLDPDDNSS
- ASSAY_TEXT: ELISA
- CONDITIONS_USED: chains peptide; modification not given
EXPERIMENTAL_READOUT: EC50

query: Any idea what its EC50 is? The binder is RRRSGLDDINPTVLLKERSTEL [Peptide 1957]
result: 62 µM
